tested on: 855422-203-R-J1-PDC complex spheroid viability; test: Anticancer human tumor 855422-203-R-J1-PDC patient-derived bladder carcinoma cell line growth inhibition; settings: second compound 1 µM; first compound 10 µM; hits give low values
Consider the following compounds; for each one, report its viability, T/C.

Q. Request - read-out viability, T/C | tested on 855422-203-R-J1-PDC complex spheroid viability | compound CC1(C)CCC(CN2CCN(c3ccc(C(=O)NS(=O)(=O)c4ccc(NCC5CCOCC5)c([N+](=O)[O-])c4)c(Oc4cnc5[nH]ccc5c4)c3)CC2)=C(c2ccc(Cl)cc2)C1 + NC1CC1c1ccc(-c2cccc(O)c2)cc1
A. 15.8%

Q. Hi! What's the reported viability, T/C for O=C(c1cc(Cc2n[nH]c(=O)c3ccccc23)ccc1F)N1CCN(C(=O)C2CC2)CC1 + NC1CC1c1ccc(-c2cccc(O)c2)cc1 on 855422-203-R-J1-PDC complex spheroid viability?
A. 80.8%

Q. Reported viability, T/C for 855422-203-R-J1-PDC complex spheroid viability, given CC1COCCN1c1cc(C2(S(C)(=N)=O)CC2)nc(-c2ccnc3[nH]ccc23)n1 (stereo not given) + NC1CC1c1ccc(-c2cccc(O)c2)cc1 ?
A. 40.5%

Q. API: value(readout= viability, T/C, system= 855422-203-R-J1-PDC complex spheroid viability, query= CC1COCCN1c1cc(C2(S(C)(=N)=O)CC2)nc(-c2ccnc3[nH]ccc23)n1 (stereo not given) + NC1CCC(NC2CC2c2ccccc2)CC1 )
A. 45.7%

Q. Recorded viability, T/C for CC(C)c1c(-c2ccccc2)nc2c(C#N)c[nH]n2c1=O + NC1CCC(NC2CC2c2ccccc2)CC1 with 855422-203-R-J1-PDC complex spheroid viability, please?
A. 75.3%

Q. Give 855422-203-R-J1-PDC complex spheroid viability viability, T/C for CC1(C)CCC(CN2CCN(c3ccc(C(=O)NS(=O)(=O)c4ccc(NCC5CCOCC5)c([N+](=O)[O-])c4)c(Oc4cnc5[nH]ccc5c4)c3)CC2)=C(c2ccc(Cl)cc2)C1 + NC1CCC(NC2CC2c2ccccc2)CC1
A. 16.2%

Q. Record COc1ccc([C@@H](O)c2cc(-c3ncnc4cc(N5CCOCC5)ccc34)c(F)cc2Cl)nn1 + NC1CCC(NC2CC2c2ccccc2)CC1 : what is its viability, T/C with 855422-203-R-J1-PDC complex spheroid viability?
A. 30.8%

Q. Record CC(C)c1c(-c2ccccc2)nc2c(C#N)c[nH]n2c1=O + NC1CC1c1ccc(-c2cccc(O)c2)cc1 : what is its viability, T/C with 855422-203-R-J1-PDC complex spheroid viability?
A. 80.4%

Q. // fetch 855422-203-R-J1-PDC complex spheroid viability viability, T/C for O=C(c1cc(Cc2n[nH]c(=O)c3ccccc23)ccc1F)N1CCN(C(=O)C2CC2)CC1 + NC1CCC(NC2CC2c2ccccc2)CC1
A. 79.5%

Q. # query: viability, T/C | item COc1ccc([C@@H](O)c2cc(-c3ncnc4cc(N5CCOCC5)ccc34)c(F)cc2Cl)nn1 + NC1CC1c1ccc(-c2cccc(O)c2)cc1 | system: 855422-203-R-J1-PDC complex spheroid viability
A. 38.2%

====

Tested on: 855422-203-R-J1-PDC complex spheroid viability
Test: Anticancer human tumor 855422-203-R-J1-PDC cell line growth inhibition;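 also: drug exposure lasted 7 days starting on day 3 after seeding; luminescence viability as percent of DMSO vehicle wells = 100%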
Conditions: second compound 0.1 µM; first compound 1 µM; hits give low values
From the text: Multicellular complex tumor spheroid response to LSD1 Inhibitor Iadademstat in combination with a variety of drugs and investigational agents in selected tumor cell lines The current study was undertaken to assess response to LSD1 inhibitors in combination with standard-of-care drugs and investigational agents in solid tumor complex spheroid models as well as in the K-562 leukemia. […] Compounds. […] If the clinical Cmax for an agent had not been determined, the highest concentration tested was 10 microM. […]
Exercise: state measured viability, T/C for each of the compounds provided.
Answer with a number only, understood to be in %.

Q. # query: viability, T/C of entry COc1cc(Nc2ncc3c(n2)-c2ccc(Cl)cc2C(c2c(F)cccc2OC)=NC3)ccc1C(=O)O + NC1CC1c1ccc(-c2cccc(O)c2)cc1
A. 46.5

Q. What value of measured viability, T/C is listed for COc1cc(Nc2ncc3c(n2)-c2ccc(Cl)cc2C(c2c(F)cccc2OC)=NC3)ccc1C(=O)O + NC1CCC(NC2CC2c2ccccc2)CC1 ?
A. 50.3

Q. Can you look up the measured viability, T/C of O=C(c1cc(Cc2n[nH]c(=O)c3ccccc23)ccc1F)N1CCN(C(=O)C2CC2)CC1 + NC1CCC(NC2CC2c2ccccc2)CC1 for me?
A. 83.2

Q. Recorded viability, T/C for CC1(C)CCC(CN2CCN(c3ccc(C(=O)NS(=O)(=O)c4ccc(NCC5CCOCC5)c([N+](=O)[O-])c4)c(Oc4cnc5[nH]ccc5c4)c3)CC2)=C(c2ccc(Cl)cc2)C1 + NC1CCC(NC2CC2c2ccccc2)CC1 , please?
A. 101

Q. Query: viability, T/C; subject: O=C(c1cc(Cc2n[nH]c(=O)c3ccccc23)ccc1F)N1CCN(C(=O)C2CC2)CC1 + NC1CC1c1ccc(-c2cccc(O)c2)cc1
A. 98

Q. Value lookup for viability, T/C; key = COc1ccc([C@@H](O)c2cc(-c3ncnc4cc(N5CCOCC5)ccc34)c(F)cc2Cl)nn1 + NC1CCC(NC2CC2c2ccccc2)CC1
A. 73.8

Q. Which value of viability, T/C has been reported for CC1COCCN1c1cc(C2(S(C)(=N)=O)CC2)nc(-c2ccnc3[nH]ccc23)n1 (stereo not drawn) + NC1CCC(NC2CC2c2ccccc2)CC1 in the records?
A. 93.1

Q. Bench note: what viability, T/C did CC1COCCN1c1cc(-c2ccnn2C)c2ccnc(-c3ccn[nH]3)c2n1 (stereo not drawn) + NC1CC1c1ccc(-c2cccc(O)c2)cc1 show?
A. 35.5

Q. Entry COc1ccc([C@@H](O)c2cc(-c3ncnc4cc(N5CCOCC5)ccc34)c(F)cc2Cl)nn1 + NC1CC1c1ccc(-c2cccc(O)c2)cc1 : reported viability, T/C = ?
A. 77.7

Q. // viability, T/C lookup, key: CC(C)c1c(-c2ccccc2)nc2c(C#N)c[nH]n2c1=O + NC1CCC(NC2CC2c2ccccc2)CC1
A. 87.7

Q. State the recorded viability, T/C for this entry: CC1COCCN1c1cc(C2(S(C)(=N)=O)CC2)nc(-c2ccnc3[nH]ccc23)n1 (stereo not drawn) + NC1CC1c1ccc(-c2cccc(O)c2)cc1
A. 74.6

Q. What viability, T/C value was documented for this compound, CC1(C)CCC(CN2CCN(c3ccc(C(=O)NS(=O)(=O)c4ccc(NCC5CCOCC5)c([N+](=O)[O-])c4)c(Oc4cnc5[nH]ccc5c4)c3)CC2)=C(c2ccc(Cl)cc2)C1 + NC1CC1c1ccc(-c2cccc(O)c2)cc1 ?
A. 94.5

Q. Entry under review: CC1COCCN1c1cc(-c2ccnn2C)c2ccnc(-c3ccn[nH]3)c2n1 (stereo not drawn) + NC1CCC(NC2CC2c2ccccc2)CC1 . Reported viability, T/C?
A. 33

Q. Give the measured viability, T/C of O=C(C=Cn1cnc(-c2cc(C(F)(F)F)cc(C(F)(F)F)c2)n1)NNc1cnccn1 + NC1CCC(NC2CC2c2ccccc2)CC1 .
A. 28.6

Q. Field request: viability, T/C | item: Nc1ncn(C2CC(O)C(CO)O2)c(=O)n1 (stereo not drawn) + NC1CCC(NC2CC2c2ccccc2)CC1
A. 85.2

Q. Look at this compound and give its reported viability, T/C. O=C(C=Cn1cnc(-c2cc(C(F)(F)F)cc(C(F)(F)F)c2)n1)NNc1cnccn1 + NC1CC1c1ccc(-c2cccc(O)c2)cc1
A. 16.2

Q. // lookup viability, T/C for CC(C)c1c(-c2ccccc2)nc2c(C#N)c[nH]n2c1=O + NC1CC1c1ccc(-c2cccc(O)c2)cc1
A. 95.7

Q. // query viability, T/C value for entry Nc1ncn(C2CC(O)C(CO)O2)c(=O)n1 (stereo not drawn) + NC1CC1c1ccc(-c2cccc(O)c2)cc1
A. 92.4
